- experimental-details: in vitro
- condition-description: human, plasma, half-life (T1/2)
Non-standard residues stand in square brackets, D forms with d. Residues, ends and D or L forms follow the SMILES beside them.
metric-name: half-life

Problem: What half-life value was documented for this compound, CCNC(=O)[C@@H]1CCCN1C(=O)[C@H](CCCNC(=N)N)NC(=O)[C@H](CC(C)C)NC(=O)[C@@H](CCCCN)NC(=O)[C@H](Cc1ccc(O)cc1)NC(=O)[C@H](CO)NC(=O)[C@H](Cc1c[nH]c2ccccc12)NC(=O)[C@H](Cc1c[nH]cn1)NC(=O)[C@@H]1CCC(=O)N1 [LD5] ?
Solution: ~6.08 h

Problem: What does the data say about its half-life? Entry: CCNC(=O)[C@@H]1CCCN1C(=O)[C@H](CCCNC(=N)N)NC(=O)[C@H](CC(C)C)NC(=O)[C@@H](CCCCN)NC(=O)[C@H](Cc1ccc(O)cc1)NC(=O)[C@H](CO)NC(=O)[C@H](Cc1c[nH]c2ccccc12)NC(=O)[C@H](Cc1c[nH]cn1)NC(=O)[C@@H](N)CCC(N)=O [LD4] (H-QHWSY[dK]LRP-NHEt)
Solution: ~4.28 h

Problem: Field request: half-life | item: CC(C)C[C@H](NC(=O)[C@@H](Cc1c[nH]c2ccccc12)NC(=O)[C@H](Cc1ccc(O)cc1)NC(=O)[C@H](CO)NC(=O)[C@H](Cc1c[nH]c2ccccc12)NC(=O)[C@H](Cc1c[nH]cn1)NC(=O)[C@@H]1CCC(=O)N1)C(=O)N[C@@H](CCCNC(=N)N)C(=O)N1CCC[C@H]1C(=O)NCC(N)=O [triptorelin, reference compound]
Solution: ~0.317 h

Problem: Fill in: half-life of CC(C)C[C@H](NC(=O)CNC(=O)[C@H](Cc1ccc(O)cc1)NC(=O)[C@H](CO)NC(=O)[C@H](Cc1c[nH]c2ccccc12)NC(=O)[C@H](Cc1c[nH]cn1)NC(=O)[C@@H]1CCC(=O)N1)C(=O)N[C@@H](CCCNC(=N)N)C(=O)N1CCC[C@H]1C(=O)NCC(N)=O [LHRH, reference compound] is ___
Solution: ~0.167 h

Problem: Item CCNC(=O)[C@@H]1CCCN1C(=O)[C@H](CCCNC(=N)N)NC(=O)[C@H](CC(C)C)NC(=O)[C@@H](CCCCNC(=O)CCCCCN)NC(=O)[C@H](Cc1ccc(O)cc1)NC(=O)[C@H](CO)NC(=O)[C@H](Cc1c[nH]c2ccccc12)NC(=O)[C@H](Cc1c[nH]cn1)NC(=O)[C@@H]1CCC(=O)N1 [LD6] has what recorded half-life?
Solution: ~5.15 h

Problem: Can you look up the measured half-life of CC(C)C[C@H](NC(=O)[C@@H](CCCCN)NC(=O)[C@H](Cc1ccc(O)cc1)NC(=O)[C@H](CO)NC(=O)[C@H](Cc1c[nH]c2ccccc12)NC(=O)[C@H](Cc1cnc[nH]1)NC(=O)[C@@H]1CCC(=O)N1)C(=O)N[C@@H](CCCNC(=N)N)C(=O)N1CCC[C@H]1C(=O)NCC(N)=O [[k^6] LHRH, reference compound] for me?
Solution: ~0.65 h
